Here, each record is paired with measured UI data.
Organism: Rattus norvegicus
Assay: Toxicity in rat assessed as ulcerogenic potential
Format: organism-based
Conditions: in vivo
OBSERVATION TYPE: UI

COMPOUND	EXPERIMENTAL RESULT
CCOC(=O)c1c(Nc2ccc(S(N)(=O)=O)cc2)ncnc1NC(C)C	0.241
O=C([O-])Cc1ccccc1Nc1c(Cl)cccc1Cl.[Na+] [DICLOFENAC SODIUM]	0.805
Cc1ccc(-c2cc(C(F)(F)F)nn2-c2ccc(S(N)(=O)=O)cc2)cc1 [CELECOXIB]	0.104
CCOC(=O)c1c(Nc2ccc(C)cc2)ncnc1NC(C)C	0.29
